Provide the recorded Vd for the entries that follow.
- Assay Remarks: Pharmacokinetics following intravenous (IV) dosing
- Assay type: in vivo, Sprague-Dawley rats
- Recorded Conditions: male, Sprague-Dawley, rat, plasma, iv, 1 mg/kg; read-out: Vss
Give bare numbers, in L/kg.

COCCOCCOCCOCCOCCOC1C=CC2C3Cc4ccc(OC)c5c4C2(CCN3C)C1O5 (stereo not shown); 2.95

Provide the reported Vd of each entry below, same order.
1. COCCOCCOCCOCCOCCOCCOCCOC1C=CC2C3Cc4ccc(OC)c5c4C2(CCN3C)C1O5 (stereo not shown)
2. COCCOCCOCCOC1C=CC2C3Cc4ccc(OC)c5c4C2(CCN3C)C1O5 (stereo not shown)
3. COCCOCCOCCOCCOCCOCCOCCOCCOCCOC1C=CC2C3Cc4ccc(OC)c5c4C2(CCN3C)C1O5 (stereo not shown)

1: 5.2; 2: 2.07; 3: 5.18

====

- Tested Target: human mu opioid receptor (Homo sapiens, UniProt P35372)
- Construct: expressed in transfected cells; host or cells: CHO cells
- Sequence (P35372 whole entry): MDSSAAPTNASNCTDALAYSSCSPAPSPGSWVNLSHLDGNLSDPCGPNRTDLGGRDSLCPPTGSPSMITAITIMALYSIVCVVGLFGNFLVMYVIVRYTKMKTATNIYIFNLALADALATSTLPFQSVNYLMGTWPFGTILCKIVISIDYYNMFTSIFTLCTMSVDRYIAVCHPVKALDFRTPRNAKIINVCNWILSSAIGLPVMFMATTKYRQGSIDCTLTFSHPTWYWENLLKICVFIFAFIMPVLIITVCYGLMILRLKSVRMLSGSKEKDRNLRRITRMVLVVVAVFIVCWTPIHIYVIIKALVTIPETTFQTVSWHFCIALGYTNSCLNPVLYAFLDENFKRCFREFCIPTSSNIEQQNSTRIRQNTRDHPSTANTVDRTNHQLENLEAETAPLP
- Assay Remarks: biochemical
- Type: binding
Parameter: Ki (nM)
One number for each entry, in nM.

COCCOCCOCCOC1C=CC2C3Cc4ccc(O)c5c4C2(CCN3C)C1O5 (stereo not drawn) [α-6-mPEG3-O-morphine]; 50.7
COCCOCCOCCOCCOCCOC1C=CC2C3Cc4ccc(O)c5c4C2(CCN3C)C1O5 (stereo not drawn) [α-6-mPEG5-O-morphine]; 39.4
COCCOCCOC1C=CC2C3Cc4ccc(O)c5c4C2(CCN3C)C1O5 (stereo not drawn) [α-6-mPEG2-O-morphine]; 22

Looking for the measured Ki of COCCOCCOCCOCCOC1C=CC2C3Cc4ccc(O)c5c4C2(CCN3C)C1O5 (stereo not drawn) [α-6-mPEG4-O-morphine] , can you help? 23.1

====

Provide the recorded Ki for the entries that follow.
- Tested Target: human mu opioid receptor (Homo sapiens, UniProt P35372)
- Construct: expressed in transfected cells; host or cells: CHO cells
- Assay Remarks: biochemical
- Format: binding
- Recorded Conditions: CHO-K1 membranes, [3H]DAMGO 6 nM; read-out: Ki, Mu opioid receptor
One number for each entry, in µM.

COCCOCCOCCOCCOCCOCCOCCOCCOCCOC1C=CC2C3Cc4ccc(O)c5c4C2(CCN3C)C1O5 (stereo not drawn); 0.111

Provide the reported Ki of each entry below, same order.
1. COCCOCCOCCOCCOCCOCCOC1C=CC2C3Cc4ccc(OC)c5c4C2(CCN3C)C1O5 (stereo not drawn)
2. COCCOCCOCCOCCOC1C=CC2C3Cc4ccc(OC)c5c4C2(CCN3C)C1O5 (stereo not drawn)
3. COCCOCCOCCOC1CCC2(O)C3Cc4ccc(OC)c5c4C2(CCN3C)C1O5 (stereo not drawn) [α-6-mPEG3-O-hydroxycodone, α-6-mPEG3-O-oxycodone]
4. COCCOCCOCCOCCOCCOCCOCCOC1CCC2(O)C3Cc4ccc(OC)c5c4C2(CCN3C)C1O5 (stereo not drawn) [α-6-mPEG7-O-hydroxycodone, α-6-mPEG7-O-oxycodone]
5. COCCOCCOCCOCCOCCOC1CCC2(O)C3Cc4ccc(OC)c5c4C2(CCN3C)C1O5 (stereo not drawn) [α-6-mPEG5-O-hydroxycodone, α-6-mPEG5-O-oxycodone]
6. COCCOCCOCCOCCOCCOCCOCCOCCOCCOC1C=CC2C3Cc4ccc(OC)c5c4C2(CCN3C)C1O5 (stereo not drawn)
7. COCCOCCOCCOCCOCCOC1C=CC2C3Cc4ccc(OC)c5c4C2(CCN3C)C1O5 (stereo not drawn)
8. COCCOCCOCCOC1C=CC2C3Cc4ccc(OC)c5c4C2(CCN3C)C1O5 (stereo not drawn)

14.2
2.89
0.775
1.61
1.86
9.98
2.43
4.26

Provide the reported Ki of each entry below, same order.
1. COCCOCCOCCOCCOCCOCCOC1CCC2(O)C3Cc4ccc(OC)c5c4C2(CCN3C)C1O5 (stereo not drawn) [α-6-mPEG6-O-hydroxycodone, α-6-mPEG6-O-oxycodone]
2. COCCOC1C=CC2C3Cc4ccc(OC)c5c4C2(CCN3C)C1O5 (stereo not drawn)
3. COCCOCCOC1CCC2(O)C3Cc4ccc(OC)c5c4C2(CCN3C)C1O5 (stereo not drawn) [α-6-mPEG2-O-hydroxycodone, α-6-mPEG2-O-oxycodone]
4. COCCOC1CCC2(O)C3Cc4ccc(OC)c5c4C2(CCN3C)C1O5 (stereo not drawn) [α-6-mPEG1-O-hydroxycodone, α-6-mPEG1-O-oxycodone]
5. COCCOCCOC1C=CC2C3Cc4ccc(OC)c5c4C2(CCN3C)C1O5 (stereo not drawn)
6. COCCOCCOCCOCCOCCOCCOCCOC1C=CC2C3Cc4ccc(OC)c5c4C2(CCN3C)C1O5 (stereo not drawn)

[1.9, 1.82, 0.632, 0.654, 1.38, 9.96]
